# assay-comment: pH of 1% solution or suspension
# Assay type: physicochemical
# test-parameters: In water
reported-endpoint: pH of 1% solution or suspension
Could you keep your reply to the number by itself?

CS(=O)(=O)O.Cn1c(Nc2ccc(C(F)(F)F)cc2)nc2cc(Oc3ccnc(-c4ncc(C(F)(F)F)[nH]4)c3)ccc21 [Mesylate] ... 2.0
CCS(=O)(=O)O.Cn1c(Nc2ccc(C(F)(F)F)cc2)nc2cc(Oc3ccnc(-c4ncc(C(F)(F)F)[nH]4)c3)ccc21 [Esylate] ... 2.2

Lookup: Consider the compound Cn1c(Nc2ccc(C(F)(F)F)cc2)nc2cc(Oc3ccnc(-c4ncc(C(F)(F)F)[nH]4)c3)ccc21.O=C(O)/C=C\C(=O)O [Maleate] and give its measured pH of 1% solution or suspension.
Found: 2.7

Lookup: For Cn1c(Nc2ccc(C(F)(F)F)cc2)nc2cc(Oc3ccnc(-c4ncc(C(F)(F)F)[nH]4)c3)ccc21 then?
Found: 5.5

###

# assay-comment: Polymorphism behavior: crystal modification after 24 hours equilibration
# Type: physicochemical
# test-parameters: 2-propanol
reported-endpoint: Crystal modification after 24 hours equilibration (DSC/XRPD/TG)

CCS(=O)(=O)O.Cn1c(Nc2ccc(C(F)(F)F)cc2)nc2cc(Oc3ccnc(-c4ncc(C(F)(F)F)[nH]4)c3)ccc21 [Esylate] ... No change
Cn1c(Nc2ccc(C(F)(F)F)cc2)nc2cc(Oc3ccnc(-c4ncc(C(F)(F)F)[nH]4)c3)ccc21 ... No change
Cn1c(Nc2ccc(C(F)(F)F)cc2)nc2cc(Oc3ccnc(-c4ncc(C(F)(F)F)[nH]4)c3)ccc21.O=C(O)/C=C\C(=O)O [Maleate] ... No change
CS(=O)(=O)O.Cn1c(Nc2ccc(C(F)(F)F)cc2)nc2cc(Oc3ccnc(-c4ncc(C(F)(F)F)[nH]4)c3)ccc21 [Mesylate] ... No change

###

# assay-comment: Apparent pKa by pH profile solubility study
# Format: physicochemical
# test-parameters: determined by a pH profile solubility study
reported-endpoint: pKa

Lookup: Consider the compound Cn1c(Nc2ccc(C(F)(F)F)cc2)nc2cc(Oc3ccnc(-c4ncc(C(F)(F)F)[nH]4)c3)ccc21 and give its measured pKa.
Found: ~4.7

###

# assay-comment: Aqueous solubility of salts in deionized water
# test-parameters: deionized water, water, thermodynamic from solid
Let's look at some compounds and their measured solubility at 48 h.
Just the number please, in mg/mL, no unit attached.

Known results for compounds:
Cn1c(Nc2ccc(C(F)(F)F)cc2)nc2cc(Oc3ccnc(-c4ncc(C(F)(F)F)[nH]4)c3)ccc21.O=C(O)/C=C\C(=O)O [Maleate] ... 0.096
Cn1c(Nc2ccc(C(F)(F)F)cc2)nc2cc(Oc3ccnc(-c4ncc(C(F)(F)F)[nH]4)c3)ccc21 ... 0.004
CS(=O)(=O)O.Cn1c(Nc2ccc(C(F)(F)F)cc2)nc2cc(Oc3ccnc(-c4ncc(C(F)(F)F)[nH]4)c3)ccc21 [Mesylate] ... 0.774

Then this compound:
Lookup: Consider the compound Cl.Cn1c(Nc2ccc(C(F)(F)F)cc2)nc2cc(Oc3ccnc(-c4ncc(C(F)(F)F)[nH]4)c3)ccc21 [Hydrochloride] and give its measured solubility at 48 h.
Found: 0.457

###

Let's look at some compounds and their measured Intrinsic dissolution rate.
# assay-comment: Intrinsic dissolution rate
# Format: physicochemical
# test-parameters: HCl 0.1N; 37° C.
Just the number please, in mg min^−1 cm^−2, no unit attached.

CCS(=O)(=O)O.Cn1c(Nc2ccc(C(F)(F)F)cc2)nc2cc(Oc3ccnc(-c4ncc(C(F)(F)F)[nH]4)c3)ccc21 [Esylate] ... 0.06
Cn1c(Nc2ccc(C(F)(F)F)cc2)nc2cc(Oc3ccnc(-c4ncc(C(F)(F)F)[nH]4)c3)ccc21.O=C(O)/C=C\C(=O)O [Maleate] ... 0.03
Cn1c(Nc2ccc(C(F)(F)F)cc2)nc2cc(Oc3ccnc(-c4ncc(C(F)(F)F)[nH]4)c3)ccc21 [API] ... 0

Lookup: Consider the compound CS(=O)(=O)O.Cn1c(Nc2ccc(C(F)(F)F)cc2)nc2cc(Oc3ccnc(-c4ncc(C(F)(F)F)[nH]4)c3)ccc21 [Mesylate] and give its measured Intrinsic dissolution rate.
Found: 0.056
